# TGT: Transcriptional activator protein TraR (Agrobacterium tumefaciens)
# TEST_PROTOCOL: Agonist activity at Agrobacterium tumefaciens WCF (pCF372) TraR assessed as activation of quorum sensing at 10 uM relative to OOHL
# Type: functional
MEASURE_NAME: Activity (%)

| RECORD_SMILES | UNIT_SPEC | Activity |
| --- | --- | --- |
| CCCCCCCCCC(=O)CC(=O)Nc1ccccc1 | % | 1 |
| CCCCCCCCCC(=O)CC(=O)NCc1ccc(OC)cc1 | % | 0 |

[A] CCCCCCCCCC(=O)CC(=O)N[C@@H](C)C(=O)OC
[B] CCCCCCCCCC(=O)CC(=O)NCc1cc(F)cc(F)c1
Between these two entries, A and B , state which has the higher Activity. Indicate your choice by writing its label.
A
(A: 0%, B: -1%)

---

# TGT: Transcriptional activator protein LuxR (Aliivibrio fischeri) (UniProt P12746)
# Sequence (P12746 whole entry): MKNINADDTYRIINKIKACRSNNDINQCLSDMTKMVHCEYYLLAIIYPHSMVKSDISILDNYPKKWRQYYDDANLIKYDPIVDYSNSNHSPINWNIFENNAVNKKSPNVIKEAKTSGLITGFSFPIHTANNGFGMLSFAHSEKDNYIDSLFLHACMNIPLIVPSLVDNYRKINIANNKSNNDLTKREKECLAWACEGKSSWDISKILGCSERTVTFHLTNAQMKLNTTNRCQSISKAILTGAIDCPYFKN
# TEST_PROTOCOL: Antagonist activity at Vibrio fischeri ESI 114 (delta-LuxI) LuxR assessed as inhibition of OHHL-induced quorum sensing activation at 10 uM relative to untreated control
# Type: functional
MEASURE_NAME: inhibition (%)

| RECORD_SMILES | UNIT_SPEC | inhibition |
| --- | --- | --- |
| O=C(Cc1cccc([N+](=O)[O-])c1)NC1CCCC1 | % | 62 |
| CCCCCCCCCC(=O)CC(=O)NCc1ccco1 | % | -4 |
| CCCCCCCCCC(=O)CC(=O)N[C@@H](C)C(=O)OC | % | 24 |
| CCCCCCCCCC(=O)CC(=O)Nc1ccccc1 | % | 12 |
| O=C(Cc1ccc(Br)cc1)NC1CCCC1 | % | 35 |
| CCCCCCCCCC(=O)CC(=O)NCc1cccc([N+](=O)[O-])c1 | % | 44 |

[A] CCOC(=O)CNC(=O)Cc1ccccc1
[B] CCOC(=O)CNC(=O)CCc1ccc(OC)cc1
Choose between A and B : whose measured inhibition value is numerically larger? Lab log: write the label of the selected item as the result.
B
(B: 40%, A: 15%)

[P] O=C(Cc1ccccc1)NC1CCCC1
[Q] CCOC(=O)CNC(=O)CCc1cccc(I)c1
[R] CCCCCCCCCC(=O)CC(=O)NCCc1ccccc1
[S] CCCCCCCCCC(=O)CC(=O)Nc1cc(-c2ccc(Cl)cc2)nn1C
[T] O=C(Cc1ccc(Br)cc1)Nc1ccccc1
hey, can you rank those compounds up there by inhibition? biggest number first please List the labels in the requested order.
Q, P, R, S, T

[A] COc1ccc(CC(=O)NC2CCCC2)cc1
[B] CCCCCCCCCC(=O)Nc1ccccc1
Hey, which is lower on measured inhibition, A or B ? Kindly state the label of the option you pick.
B

[P] CCCCCCCCCC(=O)CC(=O)NCc1ccc(OC)cc1
[Q] O=C(CCCc1c[nH]c2ccccc12)NC1CCCC1
[R] O=C(Cc1cccc([N+](=O)[O-])c1)Nc1ccccc1
List these items ordered by inhibition, big to small. Please write the labels in the order that was asked for.
Q, P, R

---

# System: Escherichia coli DH5[alpha]
# TEST_PROTOCOL: Antagonist activity at Escherichia coli DH5alpha (pJN105L + pSC11) LasR assessed as inhibition of N-(3-oxo)-dodecanoyl HL-induced quorum sensing activation at 10 uM relative to untreated control
# Type: functional
# reported inhibition; entries follow
Supply the numeric figure in %, leaving out any unit text.

Solved entries:
| RECORD_SMILES | MEASURE_NAME | UNIT_SPEC | REPORTED |
| --- | --- | --- | --- |
| O=C(Cc1ccc(Br)cc1)Nc1ccccc1 | inhibition | % | 20 |
| O=C(CCCc1c[nH]c2ccccc12)NC1CCCC1 | inhibition | % | 20 |

Next compound, inhibition to be filled in.
Which inhibition is listed for "CCCCCCCCCC(=O)Nc1ccccc1" ?
20
